B1: CDC25A (parent)
chain: KPIVPTDGKRVIVVFHCEFSSERG

Variants of: B1
testProtocol: protein stability index of a GFP-peptide fusion (GPS, HEK-293T) (PSI 1-6); higher = more stable;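 note: lentivirally expressed fusions sorted by FACS into six bins by GFP to DsRed ratio, PSI derived from sequencing read proportions per bin multiplied by bin number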
conditionSummary: c terminus: a fixed tail appended
Could you please report measured protein stability index for the items listed next?
Numbers only.

>>> df
                          residues  measuredresult
0   QPIVPTDGKRVIVVFHCEFSSERG [K1Q]            2.15
1  KPIVPTDGKRVIVVFHCEFSSELG [R23L]            2.44
2  KPIVPTDGKRVIVVFHCEYSSERG [F19Y]            1.89

Record protein stability index per entry; entries follow.
1. KPIVPTDGKRVIVLFHCEFSSERG [V14L]
2. KPIVPTDGKRVIVVFHCELSSERG [F19L]

a:
1: 2.17; 2: 2.32

Record protein stability index per entry; entries follow.
1. KPIVPTDGKRVIVSFHCEFSSERG [V14S]
2. KPIVPTDGKRVRVVFHCEFSSERG [I12R]
3. KPIVPTDGKRVIVVFHCEFESERG [S20E]
4. KPIVPTDGKRVIVVFHCEFWSERG [S20W]
5. KPIVPTDGKRVIRVFHCEFSSERG [V13R]
6. KPIVPTDGKRVIVVFRCEFSSERG [H16R]

a:
1: 2.52; 2: 1.94; 3: 1.12; 4: 2.1; 5: 2.91; 6: 3.3

Record protein stability index per entry; entries follow.
1. KPIHPTDGKRVIVVFHCEFSSERG [V4H]
2. KPIVPTDGKRVIVVFHCEESSERG [F19E]

a:
2.17
2.47

Record protein stability index per entry; entries follow.
1. KPIVPFDGKRVIVVFHCEFSSERG [T6F]
2. KPIVPTDGKRVIVVFHCEFSSERN [G24N]
3. KPIVPTDGKRVIVVFHCEFSIERG [S21I]
4. KRIVPTDGKRVIVVFHCEFSSERG [P2R]
5. KPIVPTDGKRVIVVFHCEFSSERD [G24D]
6. KPIVPTDGKRVIVVFHCEFSSSRG [E22S]

a:
[2.46, 2.29, 1.42, 1.99, 2.09, 3.61]
